Test system: U251 CNS
Labels: yes (1) (active), no (0) (inactive)

line_notation	measurement_target	answer_label
COc1cc2c3c(n(CCCN)c(=O)c2cc1OC)-c1ccc(C#N)cc1C3=O	U251 CNS	no (0)
COc1ccc(/C=C/c2c(C(=O)/C=C/c3ccccc3)c(C)nc3ccccc23)cc1	U251 CNS	no (0)
NS(=O)(=O)c1ccc(-c2ccc3c(NC(=O)C4CC4)n[nH]c3c2)cc1	U251 CNS	no (0)
C=C1C(=O)O[C@H]2[C@H]1CC/C(COC(=O)NCCCCNC(=O)OC/C1=C/CC[C@@]3(C)O[C@H]3[C@H]3OC(=O)C(=C)[C@@H]3CC1)=C\CC[C@@]1(C)O[C@@H]21	U251 CNS	no (0)
C=CCCCCC/C=C\[C@@H](O)C#CC#C/C=C/CO	U251 CNS	no (0)
COCC[C@H]1CCC/C=C/[C@@H]2C[C@H](O)C[C@H]2[C@H](O)/C=C/C(=O)O1	U251 CNS	yes (1)
NC(=O)c1cc(Cl)ccc1NC(=O)/C=C/c1ccccc1	U251 CNS	no (0)
COc1ccc(-c2nc3ccccn3c2/C=C/C(=O)c2cc(OC)c(OC)c(OC)c2)cc1OC	U251 CNS	no (0)
Cc1cc(C)c(NC(=O)c2sc3nc4c(cc3c2N)C(=O)CCC4)c(C)c1	U251 CNS	no (0)
COc1ccccc1CNCCCN1C(=O)c2ccc3c4c(ccc(c24)C1=O)C(=O)N(CCCNCCNCCCN)C3=O	U251 CNS	no (0)
COc1ccc(C(=O)c2cc(C)c(OC)c(C)c2)cc1OC(=O)CCl	U251 CNS	yes (1)
CN1CCN(CCCNc2nc3ccc(Oc4ccc(NC(=O)Nc5cc(C(F)(F)F)ccc5F)cc4)cc3[nH]2)CC1	U251 CNS	no (0)
CCc1nc2cc(F)c(/C=C/C(=O)NO)cc2c(=O)n1CCc1ccccc1	U251 CNS	yes (1)
COc1ccc(C(=O)c2cc(C)c(OC)c(C)c2)c(OC)c1O	U251 CNS	yes (1)
COC(=O)Nc1nc2ccc(C3(c4ccc(F)cc4)OCCO3)cc2[nH]1	U251 CNS	yes (1)
CCOC(=O)C1CCN(S(=O)(=O)/N=C2/NC(=O)NC2=C(Cl)Cl)CC1	U251 CNS	no (0)

---

Test system: SNB-19 CNS
Test: NCI tumour cell line growth inhibition, 48 h
Each record here notes measured TGI.
measured_property: TGI

compound	measurement_target	measured_property	experimental_value
CCOC(=O)CNC(=O)N(CC)C12CC3CC(CC(C3)C1)C2	SNB-19 CNS	TGI	430 µM
COc1cc2c3c(n(CCCN)c(=O)c2cc1OC)-c1ccc(C#N)cc1C3=O	SNB-19 CNS	TGI	30.4 µM
Clc1cc(Cl)c2ns[s+]c2c1Cl	SNB-19 CNS	TGI	> 100 µM
Cc1cc(NS(=O)(=O)c2ccc(Nc3c4ccccc4nc4c(C(=O)N5CCN(CCO)CC5)cccc34)cc2)no1	SNB-19 CNS	TGI	> 100 µM
CC(=O)O[C@H]1C(=O)[C@@]2(C)C(C(OC(=O)c3ccccc3)[C@]3(O)CC(OC(=O)C(O)C(NC(=O)c4ccc(C(F)(F)F)cc4)c4ccccc4)C(C)=C1C3(C)C)[C@]1(OC(C)=O)CO[C@@H]1C[C@@H]2O (some centres undefined)	SNB-19 CNS	TGI	> 37.5 µM
COc1cc2[nH]c3c(c2cc1OC)CCN[C@]31CC[C@]2(CC3c4c(cc(OC)c(O)c42)CCN3C)C[C@H]1OC (some centres undefined)	SNB-19 CNS	TGI	> 100 µM
Cn1c(O)c(C(=O)NC2CCCCC2)c(=O)n(C)c1=S	SNB-19 CNS	TGI	71.2 µM
Cc1ccc2c(c1)CC1(Cc3ccccc3C1=O)C2=O (centres undefined)	SNB-19 CNS	TGI	> 100 µM
NS(=O)(=O)c1ccc(-c2ccc3c(NC(=O)C4CC4)n[nH]c3c2)cc1	SNB-19 CNS	TGI	> 25 µM

---

Listed here: items and their measured TGI.
Test system: MDA-N
Test: NCI tumour cell line growth inhibition, 48 h

molecule	measurement_target	TGI
COC(=O)c1cc2c(cc1Cl)Sc1nnc(Nc3ccc(C)cc3)n1S2(=O)=O	MDA-N	20.6 µM
O=C1NC(=S)NC(=O)C1C(c1ccc(O)cc1)C1C(=O)NC(=S)NC1=O	MDA-N	> 100 µM
CCOC(C)O[C@H]1C(=O)OCC1(C)C (stereo partly drawn)	MDA-N	> 100 µM
CO/C=C(/C(=O)OC)c1ccccc1COc1cccc(C(F)(F)F)c1	MDA-N	> 100 µM
CCCCC1Cc2ccccc2-c2nc3ccccc3n21 (stereo not drawn)	MDA-N	29.2 µM
CCOC(=O)Cc1nc2cc(F)c(F)cc2[nH]c1=O	MDA-N	> 100 µM
CC1(C)OC(=O)N(c2ccccc2)C12C=Cc1cc([N+](=O)[O-])ccc1O2 (stereo not drawn)	MDA-N	50.8 µM
Cc1ccc(S(=O)(=O)N/N=C2/CCCOC2)cc1	MDA-N	> 100 µM
COc1cc2cc3c4cc(OC)c(OC)cc4cc[n+]3c(C)c2cc1OC (tested in a mixture with another compound)	MDA-N	> 100 µM
CCN(CC)CCSc1c2cc(OC)ccc2nc2ccc(OC)cc12	MDA-N	8.97 µM
CC1CCCCNC1=S (stereo not drawn)	MDA-N	> 10 µM
O=C(/C=C/c1ccc2ccccc2c1)NCc1ccc(C(=O)NCCc2ccccc2)cc1	MDA-N	> 100 µM
CN(C(=O)Cc1cccc(N=C=S)c1)[C@H]1CCCC[C@@H]1N1CCCC1	MDA-N	27.7 µM

---

// TGI lookup, one value per entry
Tested on: RPMI-8226 leukemia
Test: NCI tumour cell line growth inhibition, 48 h

molecule	TGI
COc1cc2cc3c4cc(OC)c(OC)cc4cc[n+]3c(C)c2cc1OC (tested in a mixture with another compound)	> 100 µM
O=C1c2ccccc2C(=O)N1CCCCNOCCCN1C(=O)c2ccccc2C1=O	> 100 µM
CC1(C)OC(=O)N(c2ccccc2)C12C=Cc1cc([N+](=O)[O-])ccc1O2 (stereo unspecified)	> 100 µM
CC1(C)C[C@@H]2C1CCC1(C)CC2(O)CC[C@H]1O (stereo partly specified)	> 100 µM
COC(=O)C12CC3CC(CC(C(=O)O)(C3)C1)C2	> 100 µM
O=c1cc(-c2ccc(Oc3ccccc3)cc2)[nH]c2cc3c(cc12)OCO3	> 100 µM
CN(C)CCC1(C2=CCCC2)CC/C(=C\c2ccc(Cl)cc2)C1=O (stereo unspecified)	22.4 µM
O=C(c1cccc2ccccc12)N1CCC(C2CCN(C(=O)c3cccc4ccccc34)CC2)CC1	> 100 µM
N#Cc1cc(-c2cc3ccccc3o2)oc1N	5.04 µM
N#Cc1[nH]c(=O)n(-c2ccccc2)c1N	> 10 µM
CCOC(=O)c1ccc(N[C@@H]2c3cc4c(cc3C(c3cc(OC)c(O)c(OC)c3)[C@H]3C(=O)OCC32)OCO4)cc1O (stereo partly specified)	4.77 µM
CCc1nc2cc(F)c(/C=C/C(=O)NO)cc2c(=O)n1CCc1ccccc1	19.9 µM
COc1cc(/C=C/c2ccc(OC)c(O)c2)cc(OC)c1	9.92 µM
CCCCCCCCCCCC(=O)OCC(C[As](=O)(O)O)OC(=O)CCCCCCCCCCC (stereo unspecified)	> 62 µM
COc1ccc2[nH]c3c4[nH]c5ccc(OC)cc5c4c4c(c3c2c1)C(=O)NC4=O	> 25 µM
CCN(CC)C1CC(O[C@H]2C[C@](O)(C(=O)CO)Cc3c(O)c4c(c(O)c32)C(=O)c2c(OC)cccc2C4=O)OC(C)C1O (stereo partly specified)	0.31 µM
CC(C)=C[C@H]1CCC2(OCCO2)[C@]1(C)COCc1ccccc1	41.9 µM
COC(=O)C1=CS/C(=C2\S[C@@H]3[C@H](S2)[C@H]2C=C[C@@H]3C2)S1	> 100 µM
C[N+]1(C)CCc2cc(O)c(O)cc2C1Cc1ccc(O)c(O)c1 (stereo unspecified)	65.9 µM
C=CCCC1(CC(Sc2ccccc2)P(=O)(c2ccccc2)c2ccccc2)OCCO1 (stereo unspecified)	> 10 µM
O=C(c1cccs1)N1CCc2ccccc2C1	> 100 µM

---

Test system: A549 NSCLC
Assay: NCI tumour cell line growth inhibition, 48 h; in the data active means GI50 below about 0.43 µM; inactive means the rest
Classes used: Yes (active), No (inactive)

line_notation	measurement_target	answer_label
O=S(=O)(c1ccc(NC(=S)NC23CC4CC(CC(C4)C2)C3)cc1)N1CCCCC1	A549 NSCLC	No
COc1cc2oc(-c3ccc(O)cc3)c(OC)c(=O)c2c(O)c1OC	A549 NSCLC	No
CC1(C)C(=O)/C(=C\c2cccnc2)C[C@]2(C)[C@H]3CC[C@@H]4[C@H]5[C@H](C(=O)/C=C/c6cccnc6)CC[C@]5(C(=O)O)CC[C@@]4(C)[C@]3(C)CC[C@@H]12	A549 NSCLC	No
COCC[C@H]1CCC/C=C/[C@@H]2C[C@H](O)C[C@H]2[C@H](O)/C=C/C(=O)O1	A549 NSCLC	Yes

Numbers sourced from PubChem BioAssay (NCI).
